The reported measurements were obtained from patent US20200385459A1.

binders and their reported EC50
- Assay target: T1, His-tagged recombinant human LRP10 protein, LRP10-516H (human, UniProt Q7Z4F1 17-440)
- T1 construct: The ELISA protocol calls the coated protein 'LR10'; also called target protein LR10; target antigen; not shown: His tag
- T1 sequence (looked up): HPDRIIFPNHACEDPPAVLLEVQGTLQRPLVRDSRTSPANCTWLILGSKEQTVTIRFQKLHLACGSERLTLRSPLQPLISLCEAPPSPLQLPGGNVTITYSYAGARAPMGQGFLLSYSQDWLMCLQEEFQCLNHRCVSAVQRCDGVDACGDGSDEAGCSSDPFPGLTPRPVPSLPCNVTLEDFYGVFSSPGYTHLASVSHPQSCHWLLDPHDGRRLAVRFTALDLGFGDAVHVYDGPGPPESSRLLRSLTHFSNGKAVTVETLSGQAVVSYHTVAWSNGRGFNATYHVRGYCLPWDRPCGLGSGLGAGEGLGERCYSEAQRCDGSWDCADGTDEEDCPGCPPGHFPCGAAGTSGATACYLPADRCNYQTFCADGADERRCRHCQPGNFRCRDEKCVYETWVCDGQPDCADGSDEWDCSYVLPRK
- Assay procedure: ELISA, coated LRP10, serial dilution of antibody
- Procedure: 1) Coat the target protein LR10 (1 μg/ml, 0.1 μg/well) in a certain coating buffer (0.1 M NaHCO₃, pH 9.6). Incubate overnight at 4° C. [0234] 2) Wash the wells 3 times with 300 μL washing buffer (0.1% PBST) per well. [0235] 3) Block the wells with 300 μL blocking buffer (3% BSA) for 1 h at 37° C. [0236] […] 9) Read plates using a microplate reader set at 490 nm. […]

Binder	EC50 [µg/mL]
Clone 1 (AB1) (antibody, V domains shown, also called AB1 (L1 + H1); AB1: L1 + H1) VH: EVQLLESGGGLVQPGGSLRLSCAASGFTFSSQAMSWVRQAPGKGLEWVSSIPPGGPNTKYADSVKGRFTISRDNSKNTLYLQMNSLRAEDTAVYYCAKSYPSFDYWGQGTLVTVSS VL: DIQMTQSPSSLSASVGDRVTITCRASQSISSYLNWYQQKPGKAPKLLIYNASDLQSGVPSRFSGSGSGTDFTLTISSLQPEDFATYYCQQSSRTPTTFGQGTKVEIK	0.013
Clone 3 (AB3) (antibody, human IgG1, V domains shown, Expressed as a full antibody in 293F cells, protein A purified; also called AB3 (L3 + H2); AB3: L3 + H2) VH: EVQLLESGGGLVQPGGSLRLSCAASGFTFSSYAMSWVRQAPGKGLEWVSQIGTMGRPTTYADSVKGRFTISRDNSKNTLYLQMNSLRAEDTAVYYCAKSGKKFDYWGQGTLVTVSS VL: DIQMTQSPSSLSASVGDRVTITCRASQSISSYLNWYQQKPGKAPKLLIYRASRLQSGVPSRFSGSGSGTDFTLTISSLQPEDFATYYCQQPTSLPLTFGQGTKVEIK	0.0349
Clone 7 (AB7) (antibody, human IgG1, V domains shown, Expressed as a full antibody in 293F cells, protein A purified; also called AB7 (L7 + H6); AB7: L7 + H6) VH: EVQLLESGGGLVQPGGSLRLSCAASGFTFSSYAMSWVRQAPGKGLEWVSSIATTGNTTYYADSVKGRFTISRDNSKNTLYLQMNSLRAEDTAVYYCAKNTATFDYWGQGTLVTVSS VL: DIQMTQSPSSLSASVGDRVTITCRASQSISSYLNWYQQKPGKAPKLLIYAASTLQSGVPSRFSGSGSGTDFTLTISSLQPEDFATYYCQQNDYYPTTFGQGTKVEIK	0.0357
Clone 8 (AB8) (antibody, human IgG1, V domains shown, Expressed as a full antibody in 293F cells, protein A purified; also called AB8 (L1 + H7); AB (L1 + H7)) VH: EVQLLESGGGLVQLGGSLRLSCAASGFTFSSQAMSWVRQAPGKGLEWVSSIPPGGPNTKYADSVKGRFTISRDNSKNTLYLQMNSLRAEDTAVYYCAKSYPSFDYWGQGTLVTVSS VL: DIQMTQSPSSLSASVGDRVTITCRASQSISSYLNWYQQKPGKAPKLLIYNASDLQSGVPSRFSGSGSGTDFTLTISSLQPEDFATYYCQQSSRTPTTFGQGTKVEIK	0.0117
